Listed here are substances together with their documented IP One EC50.
# systemUnderTest: rat angiotensin 2 type 1 receptor (rat)
# assayRemarks: cell-based or functional assay

{"substance": "SEQ ID NO: 30 (Sar-Arg-Val-Tyr-OMTh-His-Pro-Ala-OH) (peptide)", "boundSign": ">", "IP One EC50 / nM": 10000}
{"substance": "SEQ ID NO: 32 (Me2G-Arg-Val-Tyr-Ile-His-Pro-Ala-OH) (peptide)", "boundSign": "=", "IP One EC50 / nM": 24}
{"substance": "SEQ ID NO: 44 (NMAla-Arg-Val-Tyr-Ile-His-Pro-D-Ala-OH) (peptide)", "boundSign": "=", "IP One EC50 / nM": 8.2}
{"substance": "SEQ ID NO: 5 (Sar-Arg-Val-Gly-Val-His-Pro-Gly-OH) (peptide)", "boundSign": "=", "IP One EC50 / nM": 96}
{"substance": "SEQ ID NO: 29 (Sar-Arg-Val-OMTyr-Ile-His-Pro-Ala-OH) (peptide)", "boundSign": ">", "IP One EC50 / nM": 10000}
